# TESTED TARGET: Cytochrome P450 2C9 (Homo sapiens)
# METHOD: qHTS Assay for Inhibitors and Substrates of Cytochrome P450 2C9 (AID 883); also: nearly all actives have a fitted effect of over 60% in size
# CONDITIONS: recombinant CYP2C9, luciferin-H luminescence, 60 min; series mostly up to 57.1 µM
Inconclusive results are not listed. Activity calls are given as the source filed them. Calls follow the shape of the dose curve; as a rule, active = well fitted inhibition curve with a large enough effect; inconclusive = small, poorly fitted or top-dose-only effect; inactive = no such curve, though single readings can be large or run the other way.
Mark one answer only. Choices: active, inactive

Field: example entries. Status: answers known.
CC1=CC(=O)CC(C)(C)[C@@]1(O)/C=C\C(C)=C\C(=O)O :: inactive
CCC/C=C(\CCC)C(NS(=O)(=O)c1ccc(Cl)cc1)c1ccccc1 (centres undefined) :: active
COc1ccc2c(=O)cc(-c3ccc(O)cc3)oc2c1 :: active
CCCC[C@@H]1C[C@H]1C(NC(=O)c1cccs1)c1ccc(-c2ccccc2)cc1 (some centres undefined) :: active
O=C(/C=C\c1ccc(O)c(O)c1)O[C@H]1C[C@@](O)(C(=O)O)C[C@H](O)[C@@H]1O :: inactive
CC(C)C[C@@H](CC(=O)N[C@@H](CCCN)CC(=O)N[C@@H]1CCNC[C@H]1C(=O)N[C@H](CC(=O)N[C@@H](CCC(=O)O)CC(=O)O)Cc1c[nH]c2ccccc12)NC(=O)[C@@H]1CNCC[C@H]1N :: inactive
COC(=O)[C@@H]1C[C@H]1[C@@H](NC(=O)Oc1ccc(F)cc1)c1ccccc1 :: active
COc1ccccc1-c1cc(=O)c2cc(O)ccc2o1 :: inactive

Now turn to the next compound.
Problem: Hi, sorry to bother you, what did the test record for O=C(Nc1ccc2ccccc2c1)[C@H]1C[C@@H]1[C@H](NP(=O)(c1ccccc1)c1ccccc1)c1ccccc1 ?
Result: active

----------
# METHOD: NFAT Signaling Pathway (AID 444);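 also: carbachol stimulus at about its EC50 of 1 µM final; % is scaled to controls: 0 for no effect and ±100 for the full control effect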
# CONDITIONS: Jurkat NFAT-bla M1, carbachol, beta-lactamase ratio, 5 h; at 17.2 µM (top of the series) unless noted
Records with an inconclusive call do not appear.
PROPERTY: activity change, negative = inhibition (%)
Give bare numbers, in %.

A selection of reference data follows.
CCOCc1nc(N)[nH]c(=O)c1Cc1ccc(OC(C)C)cc1 :: 13.9
N#CC1=C(N)OC2=C(C(=O)CCC2)C1CCc1ccccc1 (stereo unspecified) :: -13.6
CC1=CC=CN2CC(O)CN=C12 (stereo unspecified) :: -0.121
CCc1ccc(NC(=O)CSC2=C(C#N)C(c3ccc4c(c3)OCO4)CC(=O)N2)cc1 (stereo unspecified) :: -5.09
Cn1c(OCc2cccnc2)nc2c1c(=O)n(Cc1ccc(Cl)cc1)c(=O)n2C :: 22

Query molecule follows.
Problem: What does the record list as activity change, negative = inhibition for COc1ccc2c(c1)c(C(=O)CN1CCOCC1)c(C)n2C ?
Result: 0.787

----------
Exercise: state measured activity change, negative = inhibition for each of the molecules provided.
# METHOD: AP1 Signaling Pathway (AID 357);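 also: ME-180 reporter cells stimulated with EGF at its EC50 level; % is scaled to controls: 0 for no effect and ±100 for the full control effect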
# CONDITIONS: ME-180 (cervical carcinoma) AP-1-bla reporter, EGF-induced, beta-lactamase ratio, 5 h; at 17.2 µM (top of the series) unless noted
Inconclusive results are not listed. Active and inactive are the calls of the source. Calls follow the shape of the dose curve; as a rule, active = well fitted curve in either direction with a large enough effect (not every such curve was filed as active); inconclusive = small, poorly fitted or top-dose-only effect, or another doubt; inactive = flat fitted curve, though single readings scatter.

A selection of reference data follows.
CC1CCN(c2[nH]c(=S)c(C#N)c3c2CCCC3)CC1 :: 10.9% (inactive)
O=C(NC1CCCCC1)[C@H](O)[C@@H](O)C(=O)NC1CCCCC1 :: 8.04% (inactive)
COc1cccc(COc2nc3c(c(=O)n(C)c(=O)n3C)n2C)c1 :: -9.75% (inactive)
N#CC(C(=O)NC1CCCCC1)c1nc2ccccc2nc1N1CCN(c2ccccc2F)CC1 (stereo unspecified) :: -12.2% (inactive)
CCOC(=O)CNS(=O)(=O)c1cc(-c2nn(C)c(=O)c3ccccc23)ccc1C :: 7.12% (inactive)

Give one value of activity change, negative = inhibition per listed molecule.
1. CCN(CC)c1nc(C)c2c(c1C#N)CC(C)(C)OC2
2. Cc1ccc(N2C(=O)C3ON(c4ccccc4)C(c4ccncc4)C3C2=O)c(C)c1 (stereo unspecified)
3. CC(NC(=O)Nc1nccs1)(C(F)(F)F)C(F)(F)F
4. CC1(C)Cc2ccccc2-c2c1c(=O)n(-c1ccccc1)c1nnnn21
5. COC(=O)c1ccc(Nc2cc(C)nc(-c3ccccc3O)n2)cc1
6. Cc1[nH]nc2cn[nH]c12
7. CCOC(=O)c1ccc(NCC(O)COc2ccccc2)cc1 (stereo unspecified)
8. O=C(NCCc1ccccc1)/C(=N\O)c1ccccc1

Result:
["-7.83% (inactive)", "4.43% (inactive)", "4.62% (inactive)", "-13.7% (inactive)", "15.3% (inactive)", "-10.4% (inactive)", "-4.75% (inactive)", "-2.29% (inactive)"]

Give one value of activity change, negative = inhibition per listed molecule.
1. O=c1cc(-c2ccco2)nc(-c2cccs2)o1
2. CCCSc1nc(C)c(CC(=O)O)c(=O)[nH]1
3. COCc1n[nH]c(=S)n1-c1cccc2ccccc12
4. C/C(CC1(O)C(=O)N(Cc2ccccc2)c2ccccc21)=N\O (stereo unspecified)
5. CSc1nc(NC(C)=O)nc(C)c1Cl
6. Cc1cc(=O)oc(C)c1C(=O)NCC1CCCO1 (stereo unspecified)
7. CN(C)CCCO[C@H]1[C@H]([C@H](O)CO)O[C@H]2OC(C)(C)O[C@@H]21
8. c1ccc(C2Nc3ccccc3-c3nc4ccccc4n32)nc1 (stereo unspecified)

Result:
["6.68% (inactive)", "-6.75% (inactive)", "-1.13% (inactive)", "2.48% (inactive)", "11.1% (inactive)", "2.9% (inactive)", "6.88% [at 38 µM] (inactive)", "-3.28% (inactive)"]
